Assay: CEETOX_H295R_ESTRADIOL: CeeTox H295R High-throughput Steroidogenesis Assay for Estradiol (AID 2283440);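 further: estradiol secreted into medium quantified by LC-MS/MS after dansyl derivatisation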
Conditions: actives raise or lower the signal
Activity calls are given as the source filed them. How the source made its calls: active means hit-call score of the fitted dose curve at least 0.9, where 1 is the maximum; inactive means score below 0.9.
Outcome field: choose from active, inactive

# example entries with known answers
- line.notation: "COc1cc2ncnc(Nc3cccc(Cl)c3)c2cc1OC"
  label: "inactive"
- line.notation: "NC(=O)Nc1ccc(Cl)cc1"
  label: "inactive"
- line.notation: "c1ccc(CCCc2ccccn2)cc1"
  label: "inactive"
- line.notation: "CC(C)c1cccc(O)c1"
  label: "inactive"
- line.notation: "C#C[C@]1(O)CC[C@H]2[C@@H]3CCC4=Cc5oncc5C[C@]4(C)[C@H]3CC[C@@]21C"
  label: "active"
- line.notation: "Cc1ccc2n[nH]nc2c1"
  label: "inactive"

Now consider the entry below.
Request: Outcome logged for `C=CC(C)(C)O` in this assay:
Response: inactive

###

Target: human Thyroid Receptor alpha (THRa1), THRA (gene 7067) (UniProt P10827)
Sequence (P10827 whole entry, looked up): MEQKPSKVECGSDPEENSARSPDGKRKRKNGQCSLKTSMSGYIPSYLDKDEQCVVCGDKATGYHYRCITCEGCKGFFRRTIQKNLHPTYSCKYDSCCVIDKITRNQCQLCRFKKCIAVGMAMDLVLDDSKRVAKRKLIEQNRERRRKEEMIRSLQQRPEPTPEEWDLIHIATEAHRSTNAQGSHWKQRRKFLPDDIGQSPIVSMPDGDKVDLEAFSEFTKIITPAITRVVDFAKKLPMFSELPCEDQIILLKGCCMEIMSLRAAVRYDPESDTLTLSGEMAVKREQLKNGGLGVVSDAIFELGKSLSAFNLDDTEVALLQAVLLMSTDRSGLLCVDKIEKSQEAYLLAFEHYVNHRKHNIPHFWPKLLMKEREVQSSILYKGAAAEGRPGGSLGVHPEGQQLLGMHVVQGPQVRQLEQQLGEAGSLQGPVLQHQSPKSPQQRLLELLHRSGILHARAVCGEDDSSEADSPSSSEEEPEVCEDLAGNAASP
Assay: ATG_THRa1_TRANS: Attagene TRANS-FACTORIAL HepG2 Assay for human Thyroid Receptor alpha (THRa1) (AID 2283014)
Records with an inconclusive call do not appear. Activity calls are given as the source filed them. The calls were made as follows: active = hit-call score of the fitted dose curve at least 0.9, where 1 is the maximum; inconclusive = response in the unintended direction; inactive = score below 0.9.
// one of active, inactive, no free text

- compound: "CC(=O)OCCC(C)CC(C)(C)C (stereo not given)"
  label: "inactive"
- compound: "CC(=O)OCCOC(C)=O"
  label: "inactive"
- compound: "O=S(=O)(O)c1ccc(O)c2ncccc12"
  label: "inactive"
- compound: "C=C(C)C(=O)OCc1ccccc1"
  label: "inactive"
- compound: "CCCCN"
  label: "inactive"
- compound: "CCCCCCCCCCCCCC(=O)O"
  label: "inactive"
- compound: "CC(C)(COC(=O)c1ccccc1)COC(=O)c1ccccc1"
  label: "inactive"
- compound: "OCc1cccnc1"
  label: "inactive"
- compound: "COc1c(Cl)c(Cl)c(Cl)c(Cl)c1Cl"
  label: "inactive"
- compound: "CC1(C)[C@@H]2CC[C@@]1(C)[C@H](O)C2"
  label: "inactive"

Request: What classification did `O=C(Nc1ccccc1)c1cc([N+](=O)[O-])ccc1Cl` end up with in this test?
Response: inactive

Request: Status in this test for `CCN(CC)CCOC(=O)c1ccc(N)cc1` ?
Response: inactive

Request: Look up the recorded call for COCCCOc1ccnc(CS(=O)c2nc3ccccc3[nH]2)c1C (stereo not given) in this test.
Response: active

Request: Any idea what this test logged for COC(C)CCO (stereo not given) ?
Response: inactive

Request: Please state the recorded outcome for this compound: `COc1ccc(O)cc1`
Response: inactive

###

Read-out: Monokine induced gamma interferon (MIG), CXCL9 (gene 4283)
Test: BSK_3C_MIG: BioMAP Diversity Plus: 3C Assay for Monokine induced gamma interferon (MIG) Biomarker Activity (AID 2283021)
Settings: primary human endothelial cells (HUVEC); actives raise or lower the signal
Calls of active or inactive are those of the source. The calls were made as follows: active = hit-call score of the fitted dose curve at least 0.9, where 1 is the maximum; inactive = score below 0.9.
Return exactly one item of active, inactive

Answered examples (3):
- compound: "N#Cc1ccc(CC(=NNC(=O)Nc2ccc(OC(F)(F)F)cc2)c2cccc(C(F)(F)F)c2)cc1"
  label: "inactive"
- compound: "CC(=O)Nc1ccccc1O"
  label: "inactive"
- compound: "O=C1OC2(c3cc(Br)c(O)c(Br)c3Oc3c2cc(Br)c(O)c3Br)c2c(Cl)c(Cl)c(Cl)c(Cl)c21"
  label: "active"

Request: I'd appreciate the recorded outcome for `O=C(O)c1ccc([N+](=O)[O-])cc1` from this test.
Response: inactive

Request: Which result was noted for this compound in the test: `OC[C@H]1O[C@H](O[C@]2(CCl)O[C@H](CCl)[C@@H](O)[C@@H]2O)[C@H](O)[C@@H](O)[C@H]1Cl`
Response: inactive

Request: Outcome? `c1ccc2c(c1)c1cccc3ccc4cccc2c4c31`
Response: inactive

Request: Please let me know the test result on file for `CCn1c2ccccc2c2cc(N)ccc21` .
Response: inactive

Request: Give the logged outcome of this assay for the following compound: `NCCNCCN`
Response: inactive

Request: Dear all, I need the recorded test outcome for CCCCCCCCCCCCCCCCCC(=O)OCC(CC)CCCC (configuration not stated) , thank you.
Response: inactive

Request: Can you look up the reported call for `C=C[Si](OCC)(OCC)OCC` for me?
Response: inactive

Request: Query: recorded result category for BrC1CCC(Br)C(Br)CCC(Br)C(Br)CCC1Br (configuration not stated) in this test
Response: inactive

Request: Call for entry `Nc1cc([N+](=O)[O-])ccc1Cl` :
Response: inactive

###

Target: Luciferin 4-monooxygenase (Photinus pyralis) (UniProt P08659)
Sequence (P08659 whole entry, looked up): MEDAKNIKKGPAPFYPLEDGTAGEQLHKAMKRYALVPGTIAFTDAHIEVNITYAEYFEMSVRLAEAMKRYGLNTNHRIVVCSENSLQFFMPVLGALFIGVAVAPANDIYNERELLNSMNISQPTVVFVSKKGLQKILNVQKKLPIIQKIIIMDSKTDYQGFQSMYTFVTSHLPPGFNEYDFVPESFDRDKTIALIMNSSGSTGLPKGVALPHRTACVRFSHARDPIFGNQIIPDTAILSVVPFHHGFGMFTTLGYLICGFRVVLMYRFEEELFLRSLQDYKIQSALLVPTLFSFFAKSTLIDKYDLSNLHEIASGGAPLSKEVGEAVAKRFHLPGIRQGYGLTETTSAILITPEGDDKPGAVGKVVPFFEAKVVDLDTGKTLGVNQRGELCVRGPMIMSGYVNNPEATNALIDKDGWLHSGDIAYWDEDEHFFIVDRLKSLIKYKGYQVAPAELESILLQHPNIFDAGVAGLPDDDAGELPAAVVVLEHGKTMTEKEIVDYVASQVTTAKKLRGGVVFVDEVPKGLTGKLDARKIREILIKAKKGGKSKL
Experiment: CCTE_Simmons_QuantiLum_inhib_2: CCTE's Firefly Luciferase Inhibition Assay, Simmons Lab (AID 2283767)
Records with an inconclusive call do not appear. The source made the active and inactive calls. The calls were made as follows: active = hit-call score of the fitted dose curve at least 0.9, where 1 is the maximum; inconclusive = response in the unintended direction; inactive = score below 0.9.
Output constraint: value belongs to active, inactive

- compound: "CC(C)=CCCC(C)CC=O (stereo unspecified)"
  label: "inactive"

Request: Look up the recorded call for `CCCCCCCCCCCCCOS(=O)(=O)O` in this test.
Response: inactive

Request: I would be grateful if you could indicate the recorded call for `CCCCCCCCCCCCCCCC(=O)OC[C@H](O)[C@H]1OC(=O)C(O)=C1O` .
Response: inactive

Request: Just curious, what result did `O=Nc1ccc(Nc2ccccc2)cc1` get here?
Response: active

Request: Could you kindly confirm the outcome this assay logged for `Cc1ccc(C(C)C)cc1O` ?
Response: inactive

Request: Dear all, I need the recorded test outcome for `c1ccc2c(c1)c1cccc3ccc4cccc2c4c31` , thank you.
Response: inactive

Request: Which result was noted for this compound in the test: `CSc1nc(NC2CC2)nc(NC(C)(C)C)n1`
Response: inactive

###

Target: Aryl hydrocarbon receptor (Homo sapiens) (UniProt P35869)
Sequence (P35869 whole entry, looked up): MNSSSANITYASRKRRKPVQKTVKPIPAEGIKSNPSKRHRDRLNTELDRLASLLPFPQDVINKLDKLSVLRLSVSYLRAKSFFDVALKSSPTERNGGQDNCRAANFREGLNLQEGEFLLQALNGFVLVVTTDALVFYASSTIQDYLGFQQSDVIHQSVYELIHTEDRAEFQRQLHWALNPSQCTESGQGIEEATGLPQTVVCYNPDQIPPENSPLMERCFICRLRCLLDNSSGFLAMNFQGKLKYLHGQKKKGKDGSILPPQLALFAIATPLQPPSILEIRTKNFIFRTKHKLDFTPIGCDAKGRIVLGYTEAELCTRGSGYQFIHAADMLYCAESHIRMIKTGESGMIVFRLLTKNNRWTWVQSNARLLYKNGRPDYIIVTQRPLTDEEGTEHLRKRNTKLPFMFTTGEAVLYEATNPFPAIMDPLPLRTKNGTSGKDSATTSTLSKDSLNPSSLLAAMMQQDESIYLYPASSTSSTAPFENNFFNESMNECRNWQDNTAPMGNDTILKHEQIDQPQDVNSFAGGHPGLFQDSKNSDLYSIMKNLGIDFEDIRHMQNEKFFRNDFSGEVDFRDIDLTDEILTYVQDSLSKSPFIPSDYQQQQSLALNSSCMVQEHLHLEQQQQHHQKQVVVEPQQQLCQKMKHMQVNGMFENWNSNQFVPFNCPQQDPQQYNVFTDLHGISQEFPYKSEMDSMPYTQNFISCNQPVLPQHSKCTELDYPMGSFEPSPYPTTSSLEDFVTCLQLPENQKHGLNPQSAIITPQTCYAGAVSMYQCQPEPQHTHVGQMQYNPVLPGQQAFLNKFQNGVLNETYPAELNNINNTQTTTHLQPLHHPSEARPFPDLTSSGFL
Assay: ATG_Ahr_CIS: Attagene CIS-FACTORIAL HepG2 Assay for human Aryl Hydrocarbon Receptor (Ahr) (AID 2282930)
Details: HepG2 AhR cis-factorial reporter transcription; actives raise or lower the signal
Calls of active or inactive are those of the source. Rule for the calls: active = hit-call score of the fitted dose curve at least 0.9, where 1 is the maximum; inactive = score below 0.9.
// classify into active, inactive

Completed entries (count: 5):
- molecule: "CC(=O)/C=C/C1=C(C)CCCC1(C)C"
  label: "inactive"
- molecule: "CN(CCOc1ccc(CC2SC(=O)NC2=O)cc1)c1ccccn1 (centres undefined)"
  label: "inactive"
- molecule: "O=C(O)CCSCCC(=O)O"
  label: "inactive"
- molecule: "COc1ccnc(CS(=O)c2nc3cc(OC(F)F)ccc3[nH]2)c1OC (centres undefined)"
  label: "inactive"
- molecule: "O=CCCc1ccccc1"
  label: "inactive"

Next, consider the following molecule.
Request: What is the recorded call for this molecule in the test? `CCc1c(C)cc(N)c(CC)c1N`
Response: active

###

Target: Bile acid receptor (Homo sapiens) (UniProt Q96RI1)
Sequence (Q96RI1 whole entry, looked up): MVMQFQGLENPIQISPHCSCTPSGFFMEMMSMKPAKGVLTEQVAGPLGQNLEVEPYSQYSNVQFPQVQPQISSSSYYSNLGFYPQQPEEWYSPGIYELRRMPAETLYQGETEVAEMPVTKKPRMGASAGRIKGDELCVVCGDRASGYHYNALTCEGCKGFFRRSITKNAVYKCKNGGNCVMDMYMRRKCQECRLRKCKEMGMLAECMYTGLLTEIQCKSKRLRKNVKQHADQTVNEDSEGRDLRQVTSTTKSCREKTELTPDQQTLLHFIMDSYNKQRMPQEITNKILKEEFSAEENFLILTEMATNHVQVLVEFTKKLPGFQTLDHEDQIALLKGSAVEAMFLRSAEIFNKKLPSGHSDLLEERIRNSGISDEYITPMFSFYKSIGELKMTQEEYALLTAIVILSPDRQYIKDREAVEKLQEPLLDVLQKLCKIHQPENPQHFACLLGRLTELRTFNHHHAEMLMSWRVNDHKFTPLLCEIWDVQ
Assay: ATG_FXR_TRANS: Attagene TRANS-FACTORIAL HepG2 Assay for Farnesoid X Receptor (FXR) (AID 2282979);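 further: hits raise reporter mRNA above DMSO so AC50 marks FXR activation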
Conditions: HepG2 Attagene TRANS FXR-GAL4 reporter transcription
Inconclusive results are not listed. The source made the active and inactive calls. Rule for the calls: active = hit-call score of the fitted dose curve at least 0.9, where 1 is the maximum; inconclusive = response in the unintended direction; inactive = score below 0.9.
Give your call using only these classes: YES for active, NO for inactive

Worked set:
- compound: "CN(C)CCCN"
  label: "NO"
- compound: "CCCCCCCCCCCCSC"
  label: "NO"
- compound: "c1ccc2c(c1)c1cccc3ccc4cccc2c4c31"
  label: "NO"
- compound: "O=C(O)COCCN1CCN(C(c2ccccc2)c2ccc(Cl)cc2)CC1 (stereo unspecified)"
  label: "NO"
- compound: "CC(=O)O[C@]1(C(C)=O)CC[C@H]2[C@@H]3C[C@H](C)C4=CC(=O)CC[C@]4(C)[C@H]3CC[C@@]21C"
  label: "NO"
- compound: "CCCc1c(OCCCOc2ccc(OCC(=O)O)cc2)ccc(C(C)=O)c1O"
  label: "NO"
- compound: "COc1c(Cl)c(Cl)c(Cl)c(Cl)c1Cl"
  label: "NO"
- compound: "CC1=CCC2C(C1)C2(C)C (stereo unspecified)"
  label: "NO"

Request: What outcome does the record of this test show for `Cc1ccc(Nc2ccc(O)c3c2C(=O)c2ccccc2C3=O)cc1` ?
Response: NO

Request: Which outcome was entered for the compound `Cc1c(N(C)C)c(=O)n(-c2ccccc2)n1C` in this test?
Response: NO

Request: Name the outcome recorded for `O=P(c1ccccc1)(c1ccccc1)c1ccccc1` in the assay.
Response: NO

Request: Hey, what did the test say about `O=C1c2ccccc2C(=O)N1SC1CCCCC1` ?
Response: NO

Request: Check the results log: what was the call for `O=C1NC(=O)c2ccccc21` ?
Response: NO

Request: // outcome(item) with item = `COc1cc(C(C)(C)C)c(O)c(C(C)(C)C)c1`
Response: NO

Request: Per the assay record, what outcome was assigned to CC(=O)OCCC(C)CC(C)(C)C (stereo unspecified) ?
Response: NO

Request: Per the assay record, what outcome was assigned to `CCCCNC(=O)NS(=O)(=O)c1ccc(C)cc1` ?
Response: NO

Request: Please indicate how the test categorized `CCCCC/C=C/C=C/C=O` .
Response: NO

Request: GET /call?item= `CCc1c(C)cc(N)c(CC)c1N` returns the recorded outcome of this test.
Response: NO

Request: Per the records of this test, what outcome belongs to `CCCC(=O)C(C)=O` ?
Response: NO

Request: Please let me know the test result on file for `c1ccc2sc(SN(C3CCCCC3)C3CCCCC3)nc2c1` .
Response: NO

Request: Given `CC(C)=CCC[C@H](C)CC=O` , state the outcome it received in this test.
Response: NO

Request: Name the outcome recorded for `O=C(O)C[C@H](O)C[C@H](O)/C=C/c1c(C2CC2)nc2ccccc2c1-c1ccc(F)cc1` in the assay.
Response: NO

Request: # outcome recorded in this test, key = CC1CCC(C(C)(C)O)CC1 (stereo unspecified)
Response: NO

Request: Per the records of this test, what outcome belongs to CC(C#N)(CCC(=O)O)N=NC(C)(C#N)CCC(=O)O (stereo unspecified) ?
Response: NO
